Sourced from paper PMC2873867

systemName: LYP C129/231S (Homo sapiens, UniProt Q9Y2R2, C129S/C231S)
Sequence (Q9Y2R2 24-289 C129S/C231S limits assumed): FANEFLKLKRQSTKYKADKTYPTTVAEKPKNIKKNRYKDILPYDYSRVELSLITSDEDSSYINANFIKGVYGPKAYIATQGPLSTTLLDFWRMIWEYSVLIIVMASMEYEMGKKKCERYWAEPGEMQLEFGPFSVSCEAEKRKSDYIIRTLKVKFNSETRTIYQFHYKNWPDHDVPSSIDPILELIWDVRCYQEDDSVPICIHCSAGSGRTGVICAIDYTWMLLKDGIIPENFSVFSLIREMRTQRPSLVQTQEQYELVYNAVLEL
experimentNotes: Mode of inhibition assay
Format: biochemical
experimentalSetup: read-out: Calculated Ki, from Lineweaver-Burk data
pKi: −log10 of the molar value.
recordedMetric: pKi

- N#CCC[PH](CCC#N)([Au][Cl])c1ccccc1 [Complex 1, bis(cyanoethyl)phenylphosphine–Au(I)–Cl]: 4.23

###

systemName: LYP (Homo sapiens)
Sequence (Q9Y2R2 24-289 limits assumed): as the sequence (Q9Y2R2 24-289 C129S/C231S limits assumed) above, with S106C, S208C counted along it
experimentNotes: Mode of inhibition assay
Format: biochemical
experimentalSetup: read-out: Estimated Ki from Dixon plot, Ki = -intersection point
pKi: −log10 of the molar value.
recordedMetric: pKi

• N#CCC[PH](CCC#N)([Au][Cl])c1ccccc1 = ~5.92

###

systemName: PTP-PEST (Homo sapiens, UniProt Q05209)
Sequence (Q05209 28-293 limits assumed): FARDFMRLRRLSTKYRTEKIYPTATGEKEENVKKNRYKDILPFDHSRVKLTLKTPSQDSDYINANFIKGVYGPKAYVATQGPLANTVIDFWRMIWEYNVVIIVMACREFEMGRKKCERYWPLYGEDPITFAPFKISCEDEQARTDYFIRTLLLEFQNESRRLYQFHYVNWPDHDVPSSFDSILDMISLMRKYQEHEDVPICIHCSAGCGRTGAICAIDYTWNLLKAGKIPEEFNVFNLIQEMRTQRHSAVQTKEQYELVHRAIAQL
experimentNotes: Mode of inhibition assay
Assay type: biochemical
experimentalSetup: read-out: Estimated Ki from Dixon plot, Ki = -intersection point
pKi: −log10 of the molar value.
recordedMetric: pKi

* N#CCC[PH](CCC#N)([Au][Cl])c1ccccc1 | ~4.10
